- SYSTEM_UNDER_TEST: MNK2a (pre-activated GST-MNK2a) (Homo sapiens (Human))
- Sequence (Q9HBH9 whole entry): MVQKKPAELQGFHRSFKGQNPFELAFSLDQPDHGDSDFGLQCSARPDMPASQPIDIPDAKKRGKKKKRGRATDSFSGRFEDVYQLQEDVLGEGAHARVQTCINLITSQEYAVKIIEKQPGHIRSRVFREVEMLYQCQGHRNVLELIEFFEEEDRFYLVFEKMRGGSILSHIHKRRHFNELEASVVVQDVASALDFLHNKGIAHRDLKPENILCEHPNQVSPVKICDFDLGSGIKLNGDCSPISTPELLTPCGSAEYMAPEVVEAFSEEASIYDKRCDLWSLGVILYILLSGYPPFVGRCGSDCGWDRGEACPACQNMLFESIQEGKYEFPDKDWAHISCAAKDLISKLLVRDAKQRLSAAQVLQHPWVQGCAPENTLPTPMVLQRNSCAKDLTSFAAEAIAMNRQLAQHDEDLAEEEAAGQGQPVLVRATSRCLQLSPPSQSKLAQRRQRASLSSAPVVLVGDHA
- ASSAY_TEXT: MNK2a in vitro kinase assay (assay 1), ADP-Glo
- CONDITION_SUMMARY: read-out: Mnk2 IC50
pIC50: −log10 of the molar value.
Documented pIC50 across a set of compounds
VALUE_KIND: pIC50

> print(dat)
                                   compound  numeric.readout
1  COc1c(N=S2(=O)CCCC2)cc2ncnc(Nc3ccc(F)cc3O[C@H]3CCOC3)c2c1C [Example 2.48]             8.89
2  COc1c(N=S(C)(C)=O)cc2ncnc(Nc3ccc(F)cc3O[C@H]3CCOC3)c2c1C [Example 2.50]             8.70
3  CCOc1c(N=S(C)(C)=O)cc2ncnc(Nc3ccc(F)cc3O[C@H](C)C(F)(F)F)c2c1C [Example 1.03]             8.80
4  Cc1c(OC(C)C)c(N=S(C)(C)=O)cc2ncnc(Nc3ccc(F)cc3O[C@H](C)C(F)(F)F)c12 [Example 3.03]             8.19
5  COc1c(N=S(C)(C)=O)cc2ncnc(Nc3ccc(F)cc3O[C@H](C)C(=O)NCC(F)(F)F)c2c1Cl [Example 2.47]             8.85
6  COc1c(N=S(C)(C)=O)cc2ncnc(Nc3ccc(F)cc3O[C@H]3CC[C@H](O)CC3)c2c1C [Example 2.22]             8.60
7  Cc1c(OCCCN2CCN(C)C(=O)C2)c(N=S(C)(C)=O)cc2ncnc(Nc3ccc(F)cc3O[C@H](C)C(F)(F)F)c12 [Example 1.01]             8.26
8  COc1c(N=S(C)(=O)C2CCOCC2)cc2ncnc(Nc3ccc(F)cc3O[C@@H]3CO[C@@H]4CCO[C@@H]43)c2c1C (stereo partly drawn) [Example 2.12]             8.64
9  COc1c(N=S2(=O)CCNCC2)cc2ncnc(Nc3ccc(F)cc3O[C@@H]3CO[C@@H]4CCO[C@@H]43)c2c1C [Example 2.30]             8.89
